System: LAPC4
TEST_METHOD_NOTES: Downregulation of Nkx3.1 protein expression in human LAPC4 cells at 10 uM incubated for 24 hrs by immunoblotting analysis
Type: functional, cell-based
Active and inactive are the calls of the source. The rule behind the calls is not given here.
OUTCOME_MEASURE: Activity

>>> result("Cc1c2c(nn1C)C[C@@H]1CC[C@@H]3[C@H](CC[C@]4(C)C(=O)CC[C@@H]34)[C@@]1(C)C2")
"inactive"
>>> result("C[C@]12Cc3c(nn(-c4ccccc4)c3-c3ccc(Cl)cc3)C[C@@H]1CC[C@@H]1[C@@H]2CC[C@]2(C)[C@@H](O)CC[C@@H]12")
"inactive"
>>> result("C[C@]12Cc3c(nn(-c4ccccc4)c3-c3ccc(Cl)cc3)C[C@@H]1CC[C@@H]1[C@@H]2CC[C@]2(C)C(=O)CC[C@@H]12")
"inactive"

----------
Give measured viability at 20 µM for each item. Keep answers brief.
System: LAPC4
TEST_METHOD_NOTES: Cytotoxicity against human LAPC4 cells assessed as cell viability at 20 uM incubated for 72 hrs by resazurin dye based microplate reader assay
Type: functional
RUN_CONDITIONS: read-out: Activity
I only need the number, in %, no unit after it.

[ask] In one line, give reported viability at 20 µM of the entry "C[C@]12Cc3cnn(-c4ccc(Cl)cc4)c3C[C@@H]1CC[C@@H]1[C@@H]2CC[C@]2(C)[C@@H](O)CC[C@@H]12" .
[reply] 49

[ask] In one line, give reported viability at 20 µM of the entry CNC(=O)c1ccc(N2C(=S)N(c3ccc(C#N)c(C(F)(F)F)c3)C(=O)C2(C)C)cc1F [ENZALUTAMIDE] .
[reply] 81

[ask] In one line, give reported viability at 20 µM of the entry "Cc1ccc(-c2c3c(nn2C)C[C@@H]2CC[C@@H]4[C@H](CC[C@]5(C)[C@@H](O)CC[C@@H]45)[C@@]2(C)C3)cc1" .
[reply] 52

[ask] In one line, give reported viability at 20 µM of the entry "C[C@]12Cc3cn(-c4ccccc4)nc3C[C@@H]1CC[C@@H]1[C@@H]2CC[C@]2(C)[C@@H](O)CC[C@@H]12" .
[reply] 100

----------
Tested on: CWR22R
TEST_METHOD_NOTES: Cytotoxicity against human 22Rv1 cells assessed as cell viability at 20 uM incubated for 72 hrs by resazurin dye based microplate reader assay
Type: functional
RUN_CONDITIONS: read-out: Activity
Under this convention, Met denotes viability at 20 µM strictly below 40% and Not met denotes viability at 20 µM at or above 40%.

[ask] Field: below-cutoff. Rule: recorded viability at 20 µM strictly less than 40%. Subject: "Cc1ccc(-n2cc3c(n2)C[C@@H]2CC[C@@H]4[C@H](CC[C@]5(C)[C@@H](O)CC[C@@H]45)[C@@]2(C)C3)cc1"
[reply] Not met

[ask] Field: below-cutoff. Rule: recorded viability at 20 µM strictly less than 40%. Subject: "Cc1c2c(nn1-c1ccc(Cl)cc1)C[C@@H]1CC[C@@H]3[C@H](CC[C@]4(C)[C@@H](O)CC[C@@H]34)[C@@]1(C)C2"
[reply] Not met

[ask] Field: below-cutoff. Rule: recorded viability at 20 µM strictly less than 40%. Subject: N#Cc1ccc(O[C@H]2CC[C@H](NC(=O)c3ccc(N4CCC(CN5CCN(c6cc7c(cc6F)C(=O)N(C6CCC(=O)NC6=O)C7=O)CC5)CC4)nn3)CC2)cc1Cl (stereo partly specified) [BAVDEGALUTAMIDE]
[reply] Not met

[ask] Field: below-cutoff. Rule: recorded viability at 20 µM strictly less than 40%. Subject: "Cn1nc2c(c1-c1ccco1)C[C@@]1(C)[C@@H](CC[C@@H]3[C@@H]1CC[C@]1(C)[C@@H](O)CC[C@@H]31)C2"
[reply] Met

[ask] Field: below-cutoff. Rule: recorded viability at 20 µM strictly less than 40%. Subject: "Cn1nc2c(c1-c1ccccc1)C[C@@]1(C)[C@@H](CC[C@@H]3[C@@H]1CC[C@]1(C)[C@@H](O)CC[C@@H]31)C2"
[reply] Not met

[ask] Field: below-cutoff. Rule: recorded viability at 20 µM strictly less than 40%. Subject: "Cn1nc2c(c1-c1cccs1)C[C@@]1(C)[C@@H](CC[C@@H]3[C@@H]1CC[C@]1(C)[C@@H](O)CC[C@@H]31)C2"
[reply] Not met

----------
Test system: LAPC4
TEST_METHOD_NOTES: Cytotoxicity against human LAPC4 cells assessed as cell viability at 20 uM incubated for 72 hrs by resazurin dye based microplate reader assay
Format: functional
RUN_CONDITIONS: read-out: Activity
OUTCOME_MEASURE: viability at 20 µM (%)
I only need the number, in %, no unit after it.

[ask] In one line, give reported viability at 20 µM of the entry "Cc1ccc(-n2nc3c(c2C)C[C@@]2(C)[C@@H](CC[C@@H]4[C@@H]2CC[C@]2(C)C(=O)CC[C@@H]42)C3)cc1" .
[reply] 87

[ask] In one line, give reported viability at 20 µM of the entry "C[C@]12Cc3cnn(-c4ccccc4)c3C[C@@H]1CC[C@@H]1[C@@H]2CC[C@]2(C)[C@@H](O)CC[C@@H]12" .
[reply] 60

[ask] In one line, give reported viability at 20 µM of the entry "C[C@]12Cc3c(nn(-c4ccccc4)c3-c3ccc(O)cc3)C[C@@H]1CC[C@@H]1[C@@H]2CC[C@]2(C)[C@@H](O)CC[C@@H]12" .
[reply] 63

[ask] In one line, give reported viability at 20 µM of the entry "C[C@]12Cc3c(nn(-c4ccccc4)c3-c3ccccc3)C[C@@H]1CC[C@@H]1[C@@H]2CC[C@]2(C)C(=O)CC[C@@H]12" .
[reply] 61

----------
System: CWR22R
TEST_METHOD_NOTES: Cytotoxicity against human 22Rv1 cells assessed as cell viability at 20 uM incubated for 72 hrs by resazurin dye based microplate reader assay
Assay type: functional
RUN_CONDITIONS: read-out: Activity
OUTCOME_MEASURE: viability at 20 µM (%)
I only need the number, in %, no unit after it.

[ask] In one line, give reported viability at 20 µM of the entry "C[C@]12Cc3cn(-c4ccc(Br)cc4)nc3C[C@@H]1CC[C@@H]1[C@@H]2CC[C@]2(C)[C@@H](O)CC[C@@H]12" .
[reply] 83

[ask] In one line, give reported viability at 20 µM of the entry "Cc1c2c(nn1-c1ccc([N+](=O)[O-])cc1)C[C@@H]1CC[C@@H]3[C@H](CC[C@]4(C)C(=O)CC[C@@H]34)[C@@]1(C)C2" .
[reply] 57

[ask] In one line, give reported viability at 20 µM of the entry "COc1ccc(-n2nc3c(c2C)C[C@@]2(C)[C@@H](CC[C@@H]4[C@@H]2CC[C@]2(C)[C@@H](O)CC[C@@H]42)C3)cc1" .
[reply] 54

[ask] In one line, give reported viability at 20 µM of the entry "Cc1ccc(-c2c3c(nn2C)C[C@@H]2CC[C@@H]4[C@H](CC[C@]5(C)C(=O)CC[C@@H]45)[C@@]2(C)C3)cc1" .
[reply] 73

[ask] In one line, give reported viability at 20 µM of the entry "C[C@]12Cc3c(nn(-c4ccccc4)c3-c3ccc(O)cc3)C[C@@H]1CC[C@@H]1[C@@H]2CC[C@]2(C)C(=O)CC[C@@H]12" .
[reply] 57

----------
Give measured inhibition at 10 µM for each item. Keep answers brief.
Tested on: LAPC4
TEST_METHOD_NOTES: Inhibition of colony formation in human LAPC4 cells at 10 uM incubated for 10 days by crystal violet staining based assay
Assay type: functional
RUN_CONDITIONS: LAPC4, 240 h, time 10 day
I only need the number, in %, no unit after it.

[ask] In one line, give reported inhibition at 10 µM of the entry "Cc1ccc(-c2c3c(nn2C)C[C@@H]2CC[C@@H]4[C@H](CC[C@]5(C)[C@@H](O)CC[C@@H]45)[C@@]2(C)C3)cc1" .
[reply] 28

[ask] In one line, give reported inhibition at 10 µM of the entry "C[C@]12Cc3c(nn(-c4ccccc4)c3-c3ccc(Cl)cc3)C[C@@H]1CC[C@@H]1[C@@H]2CC[C@]2(C)[C@@H](O)CC[C@@H]12" .
[reply] 47

[ask] In one line, give reported inhibition at 10 µM of the entry "Cn1nc2c(c1-c1ccc(F)cc1)C[C@@]1(C)[C@@H](CC[C@@H]3[C@@H]1CC[C@]1(C)C(=O)CC[C@@H]31)C2" .
[reply] 17

[ask] In one line, give reported inhibition at 10 µM of the entry "C[C@]12Cc3cn(-c4ccccc4)nc3C[C@@H]1CC[C@@H]1[C@@H]2CC[C@]2(C)[C@@H](O)CC[C@@H]12" .
[reply] 59

[ask] In one line, give reported inhibition at 10 µM of the entry "Cc1c2c(nn1-c1ccc([N+](=O)[O-])cc1)C[C@@H]1CC[C@@H]3[C@H](CC[C@]4(C)[C@@H](O)CC[C@@H]34)[C@@]1(C)C2" .
[reply] 11

[ask] In one line, give reported inhibition at 10 µM of the entry C[C@]12CC[C@H](O)CC1=CC[C@@H]1[C@@H]2CC[C@]2(C)C(n3cnc4ccccc43)=CC[C@@H]12 [GALETERONE] .
[reply] 30

[ask] In one line, give reported inhibition at 10 µM of the entry "Cn1nc2c(c1-c1ccc(Cl)cc1)C[C@@]1(C)[C@@H](CC[C@@H]3[C@@H]1CC[C@]1(C)[C@@H](O)CC[C@@H]31)C2" .
[reply] 26

[ask] In one line, give reported inhibition at 10 µM of the entry "Cc1c2c(nn1-c1ccc(C#N)cc1)C[C@@H]1CC[C@@H]3[C@H](CC[C@]4(C)C(=O)CC[C@@H]34)[C@@]1(C)C2" .
[reply] 29

[ask] In one line, give reported inhibition at 10 µM of the entry "C[C@]12Cc3c(nn(-c4ccccc4)c3-c3ccc(O)cc3)C[C@@H]1CC[C@@H]1[C@@H]2CC[C@]2(C)[C@@H](O)CC[C@@H]12" .
[reply] 22

[ask] In one line, give reported inhibition at 10 µM of the entry "Cc1c2c(nn1-c1ccc(Br)cc1)C[C@@H]1CC[C@@H]3[C@H](CC[C@]4(C)[C@@H](O)CC[C@@H]34)[C@@]1(C)C2" .
[reply] 5

[ask] In one line, give reported inhibition at 10 µM of the entry "C[C@]12Cc3cn(-c4ccc(Br)cc4)nc3C[C@@H]1CC[C@@H]1[C@@H]2CC[C@]2(C)[C@@H](O)CC[C@@H]12" .
[reply] 24

[ask] In one line, give reported inhibition at 10 µM of the entry "C[C@]12Cc3c(nn(-c4ccccc4)c3-c3ccc(Cl)cc3)C[C@@H]1CC[C@@H]1[C@@H]2CC[C@]2(C)C(=O)CC[C@@H]12" .
[reply] 91

// data source = ChEMBL document CHEMBL5346877
